Target: MMP13 (Homo sapiens)
experimental endpoint: IC50 (nM)
State just the number; it will be interpreted in nM.

Request: Recall the recorded IC50 for CCCCC[C@H](CC(=O)NO)C(=O)N[C@H](C(=O)N1CCC[C@H]1CO)C(C)C [Actinonin, actinonin, reference compound] with MMP13 (Homo sapiens) and state it.
Result: 100

---

Molecular target: meprin α (Homo sapiens, UniProt Q16819)
Construct: Strep-tag; made in house; host or cells: BTI-TN-5B1-4 insect cells (baculovirus, amplified in Sf9)
Sequence (Q16819 66-746): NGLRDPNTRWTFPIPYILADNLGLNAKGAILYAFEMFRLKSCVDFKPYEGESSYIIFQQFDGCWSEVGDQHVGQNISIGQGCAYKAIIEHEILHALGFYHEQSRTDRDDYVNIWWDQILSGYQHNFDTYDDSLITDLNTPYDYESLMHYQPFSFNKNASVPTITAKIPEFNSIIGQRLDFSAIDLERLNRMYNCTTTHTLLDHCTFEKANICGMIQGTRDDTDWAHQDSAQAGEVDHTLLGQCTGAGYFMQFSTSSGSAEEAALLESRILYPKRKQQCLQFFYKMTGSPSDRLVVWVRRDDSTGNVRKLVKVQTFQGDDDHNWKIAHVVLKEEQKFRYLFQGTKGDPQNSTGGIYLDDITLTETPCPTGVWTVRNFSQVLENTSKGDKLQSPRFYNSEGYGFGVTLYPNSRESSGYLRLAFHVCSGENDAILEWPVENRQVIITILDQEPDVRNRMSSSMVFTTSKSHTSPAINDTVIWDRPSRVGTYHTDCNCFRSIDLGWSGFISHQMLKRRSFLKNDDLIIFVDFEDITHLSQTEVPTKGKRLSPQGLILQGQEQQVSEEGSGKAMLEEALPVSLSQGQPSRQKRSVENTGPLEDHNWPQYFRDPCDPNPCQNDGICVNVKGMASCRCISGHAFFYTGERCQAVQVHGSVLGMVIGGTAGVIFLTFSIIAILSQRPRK
Assay: Meprin α assay in a 384-well plate (fluorogenic substrate Mca-YVADAPK-K(Dnp))
Type: biochemical
Settings: triplicate, ± SD
pIC50: −log10 of the molar value.
experimental endpoint: pIC50

Answered cases to consult:
INSERT INTO results (compound, assay_target, result) VALUES
  ('COc1cc(OC)nc(SCc2nnc(SCC(=O)NO)n2-c2ccccc2OC)n1 [SR24459]', 'meprin α (Homo sapiens, UniProt Q16819)', 4.92),
  ('COc1cc(OC)nc(SCc2nnc(SCC(=O)NO)n2-c2ccc(C(F)(F)F)cc2)n1 [SR24003]', 'meprin α (Homo sapiens, UniProt Q16819)', 5.27),
  ('COc1ccc(-n2c(CSc3ncccn3)nnc2SCC(=O)NO)cc1 [SR19855]', 'meprin α (Homo sapiens, UniProt Q16819)', 5.89),
  ('COc1cc(OC)nc(SCc2nnc(SCC(=O)NO)n2-c2cccc3ccccc23)n1 [SR26467]', 'meprin α (Homo sapiens, UniProt Q16819)', 5.70),
  ('COc1ccc(-n2c(CSc3nc(OC)cc(OC)n3)nnc2SCC(=O)NO)cc1 [SR24144]', 'meprin α (Homo sapiens, UniProt Q16819)', 5.06);

A = CCN(CC)c1ccc(-n2c(CSc3nc(OC)cc(OC)n3)nnc2SCC(=O)NO)cc1 [SR26465]
B = COc1cc(OC)nc(SCc2nnc(SCC(=O)NO)n2-c2ccc(N3CCOCC3)cc2)n1 [SR26466]
C = COc1ccc(-n2c(CSc3nc(C)cc(C)n3)nnc2SCC(=O)NO)cc1 [SR24139]
D = CCCCC[C@H](CC(=O)NO)C(=O)N[C@H](C(=O)N1CCC[C@H]1CO)C(C)C [Actinonin, actinonin, reference compound]
E = COc1cc(OC)nc(SCc2nnc(SCC(=O)NO)n2-c2ccc(Br)cc2)n1 [SR24462]
Request: // ranking: key=pIC50, reverse=True Ranked list of labels, please, in the requested order.
Result: D, A, B, C, E

P = COc1cc(OC)nc(SCc2nnc(SCC(=O)NO)n2-c2ccc(N(C)C)cc2)n1 [SR24717]
Q = COc1cc(OC)nc(SCc2nnc(SCC(=O)NO)n2-c2ccc(F)cc2)n1 [SR24463]
Request: Could you tell me which of P and Q has the lower pIC50 reading? Pick one and reply with its label.
Result: Q
(Q: 4.98, P: 6.18)
